From: patent US10487078B2

Biological target: K-ras G12D (Homo sapiens, UniProt P01116, G12D)
Sequence (P01116 1-188 isoform P01116-2 G12D): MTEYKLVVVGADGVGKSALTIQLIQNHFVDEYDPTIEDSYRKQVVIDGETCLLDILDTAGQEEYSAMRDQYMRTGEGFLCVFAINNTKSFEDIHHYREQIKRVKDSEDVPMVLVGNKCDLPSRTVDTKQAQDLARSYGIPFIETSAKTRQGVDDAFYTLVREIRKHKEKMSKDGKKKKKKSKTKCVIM
Test: G-LISA Ras activation assay, 293H cells transfected with G12D mutant
Assay type: cell-based
Settings: Table 1; G-LISA, 293H transfected, 1 hour treatment; read-out: IC50 (μM) G12D
ASSAY_ENDPOINT: IC50 (µM)
The response must be a number in µM with no trailing unit.

In the examples that follow, each entry is paired with its recorded IC50.
COMPOUND_SMILES | UNIT_NAME | IC50
O=C1CCc2cc(-c3csc(NC(=O)c4cnc(C5CC5)s4)n3)ccc2N1 | µM | 12
Cc1ccccc1C(=O)Nc1nc(-c2ccc3c(c2)CCC(=O)N3)cs1 | µM | 16
Cc1nc(C)c(C(=O)Nc2nc(-c3ccc4c(c3)CNC(=O)N4)cs2)s1 | µM | 21
Cc1nc(C)c(C(=O)Nc2nc(-c3ccc4[nH]c(=O)[nH]c4c3)cs2)s1 | µM | 10
CC(=O)Nc1ccc(-c2csc(NC(=O)c3sc(C)nc3C)n2)cc1 | µM | 15

Query block: Fill in the recorded IC50 for this compound, with K-ras G12D (Homo sapiens, UniProt P01116, G12D) as test system: CCc1nc(C)c(C(=O)Nc2nc(-c3ccc4c(c3)CCC(=O)N4)cs2)s1
Result block: 5

Query block: # iterate: Cc1nc(-c2ccccc2)sc1C(=O)Nc1nc(-c2ccc3c(c2)CCC(=O)N3)cs1
Result block: 19

Query block: # iterate: Cc1nc(C)c(C(=O)Nc2nc(-c3ccc4c(c3)CCC(=O)N4Cc3ccccc3)cs2)s1
Result block: 6

====

Below: a set of entries, each annotated with reported log10 of IC50.
Biological target: K-Ras wild-type (Homo sapiens, UniProt P01116)
Assay: G-LISA Ras activation assay, 293H cells transfected with Ras wild-type, EGF-stimulated
Type: cell-based
Settings: Table 1; G-LISA, 293H transfected, 1 hour treatment, 100 ng/ml EGF; read-out: IC50 (μM) Wild-type
Experimental: 293H cells were seeded in 6-wells at 0.6×10^6 cells per well and transfected next day with 5 μg of Ras wild-type, or G12C, G12D or G12V mutant DNA plasmid vector using transfection reagent Lipofectamine 3000. Next day cells were treated with 3.125-50 μM of Ras compounds for 1 hour. Wild-type transfected cells were subsequently treated with 100 ng/ml EGF for 2 minutes. […]
A difference of one corresponds to tenfold IC50; all values are log10 with IC50 in µM.

In the examples that follow, each entry is paired with its recorded log10 of IC50.
COMPOUND_SMILES | log10 of IC50
Cc1nc(C)c(C(=O)Nc2nc(-c3ccc4[nH]c(=O)[nH]c4c3)cs2)s1 | -0.30
Cc1nc(C)c(C(=O)Nc2nc(-c3ccc4c(c3)CCC(=O)N4Cc3ccccc3)cs2)s1 | 1.05
Cc1nc(C2CC2)sc1C(=O)Nc1nc(-c2ccc3c(c2)CCC(=O)N3)cs1 | 1.20
CCc1nc(C)c(C(=O)Nc2nc(-c3ccc4c(c3)CCC(=O)N4)cs2)s1 | 1.06

Query block: So what's the measured log10 of IC50 for this one? CC(=O)Nc1ccc(-c2csc(NC(=O)c3sc(C)nc3C)n2)cc1
Result block: 0.85

====

Test system: Akt phosphorylation in Panc1 (G12D) cells
Assay: In-Cell Western Akt phosphorylation
Format: cell-based
Conditions: EC50, one hour treatment; read-out: In-Cell Western Akt phosporylation Panc1 (G12D)
ASSAY_ENDPOINT: EC50 (µM)
The response must be a number in µM with no trailing unit.

In the examples that follow, each entry is paired with its recorded EC50.
MOLECULE | ASSAY_ENDPOINT | UNIT_NAME | READING
Cc1nc(-c2ccccc2)sc1C(=O)Nc1nc(-c2ccc3c(c2)CCC(=O)N3)cs1 [Compound 4878] | EC50 | µM | 26
Cc1nc(C)c(C(=O)Nc2nc(-c3ccc4[nH]c(=O)[nH]c4c3)cs2)s1 [Compound 4562] | EC50 | µM | 8
COCc1nc(C)c(C(=O)Nc2nc(-c3ccc4c(c3)CCC(=O)N4)cs2)s1 [Compound 4876] | EC50 | µM | 20

Turning now to a further molecule:
Query block: So what's the measured EC50 for this one? Cc1nc(C2CCOC2)sc1C(=O)Nc1nc(-c2ccc3c(c2)CCC(=O)N3)cs1 (stereo not drawn) [Compound 4892]
Result block: 12

====

Test system: Akt phosphorylation in Panc10.05 (G12D) cells
Assay: In-Cell Western Akt phosphorylation
Type: cell-based
Conditions: EC50, one hour treatment; read-out: In-Cell Western Akt phosporylation Panc10.05 (G12D)
Procedure: In-cell phosphorylation assays for Erk and Akt were performed on various of the compounds and exemplary results are shown in Table 3 below using […] and Panc10.05 cell lines for G12D K-ras mutants. Cells are seeded in complete medium into black sided, clear-bottom 384-well microplates at 3000 cells/[…]/well. Plates are returned to 37° C. CO2 incubator for 18 hr. […] Plates are imaged on the Celigo (Nexcelom) and cellular fluorescence is quantitated. […] EC50 values are calculated using Graphpad Prism.
Below: a set of entries, each annotated with reported pEC50.
Scale explanation: pEC50 corresponds to minus log10 of a concentration expressed in moles per litre.

COMPOUND | ASSAY_ENDPOINT | READING
CCc1nc(C)c(C(=O)Nc2nc(-c3ccc4c(c3)CCC(=O)N4)cs2)s1 [Compound 4891] | pEC50 | 5.52
COCCOc1nc(C)c(C(=O)Nc2nc(-c3ccc4c(c3)CCC(=O)N4)cs2)s1 [Compound 4896] | pEC50 | 4.92
Cc1nc(C2CC2)sc1C(=O)Nc1nc(-c2ccc3c(c2)CCC(=O)N3)cs1 [Compound 4877] | pEC50 | 4.77
Cc1nc(C2CCOC2)sc1C(=O)Nc1nc(-c2ccc3c(c2)CCC(=O)N3)cs1 (centres unmarked) [Compound 4892] | pEC50 | 5.22
Cc1nc(C)c(C(=O)Nc2nc(-c3ccc4[nH]c(=O)[nH]c4c3)cs2)s1 [Compound 4562] | pEC50 | 4.66

Turning now to a further compound:
Query block: Fill in the recorded pEC50 for this compound, with Akt phosphorylation in Panc10.05 (G12D) cells as test system: Cc1nc(C)c(C(=O)Nc2nc(-c3ccc4c(c3)CCC(=O)N4Cc3ccccc3)cs2)s1 [Compound 4888]
Result block: 5.52

====

Below: a set of entries, each annotated with reported IC50.
Molecular target: K-ras G12D (Homo sapiens, UniProt P01116, G12D)
Assay: G-LISA Ras activation assay, 293H cells transfected with G12D mutant
Assay type: cell-based
Conditions: Table 1; G-LISA, 293H transfected, 1 hour treatment; read-out: IC50 (μM) G12D

Query block: So what's the measured IC50 for this one? O=C1CCc2cc(-c3csc(NC(=O)c4ncccn4)n3)ccc2N1
Result block: > 25 µM

Query block: # iterate: CCc1ncsc1C(=O)Nc1nc(-c2ccc3c(c2)CCC(=O)N3)cs1
Result block: > 25 µM

Query block: # iterate: Cc1nc(C)c(CNc2nc(-c3ccc4c(c3)CCC(=O)N4)cs2)s1
Result block: > 25 µM

Query block: # iterate: O=C1CCc2cc(-c3csc(NC(=O)c4cnc(-c5ccccc5)s4)n3)ccc2N1
Result block: > 25 µM

Query block: # iterate: Cc1nc(C)c(C(=O)Nc2nc(-c3ccc(NC(=O)c4ccccc4)cc3)cs2)s1
Result block: > 25 µM

Query block: # iterate: Cc1nc(C(=O)Nc2nc(-c3ccc4c(c3)CCC(=O)N4)cs2)sc1C
Result block: > 25 µM

Query block: # iterate: Cc1nc(C2CC2)sc1C(=O)Nc1nc(-c2ccc3c(c2)CCC(=O)N3)cs1
Result block: 6 µM

Query block: # iterate: Cc1nc(C2CCOC2)sc1C(=O)Nc1nc(-c2ccc3c(c2)CCC(=O)N3)cs1 (centres unmarked)
Result block: 6.5 µM

====

Target: K-ras G12D (GDP) (Homo sapiens, UniProt P01116, G12D)
Sequence (P01116 1-188 isoform P01116-2 G12D): as above
Experiment: SPR assay (surface plasmon resonance)
Conditions: 25° C., 8% DMSO
ASSAY_ENDPOINT: Kd (µM)
The response must be a number in µM with no trailing unit.

Query block: So what's the measured Kd for this one? Cc1nc(C)c(C(=O)Nc2nc(-c3ccc4[nH]c(=O)[nH]c4c3)cs2)s1
Result block: 111

====

Target: K-ras G12D (Homo sapiens, UniProt P01116, G12D)
Assay: G-LISA Ras activation assay, 293H cells transfected with G12D mutant
Format: cell-based
Settings: Table 1; G-LISA, 293H transfected, 1 hour treatment; read-out: IC50 (μM) G12D
ASSAY_ENDPOINT: IC50

In the examples that follow, each entry is paired with its recorded IC50.
COMPOUND_SMILES | READING
O=C1CCc2cc(-c3csc(NC(=O)c4scnc4C4CC4)n3)ccc2N1 | > 25 µM
Cc1nc(C)c(C(=O)Nc2nc(-c3ccc4c(c3)CC(=O)N4)cs2)s1 | > 25 µM
O=C1CCc2cc(-c3csc(NCc4ccccc4)n3)ccc2N1 | > 25 µM
Cc1nc(C)c(C(=O)Nc2nc(-c3ccc4c(c3)CCC(=O)N4C)cs2)s1 | 19 µM
O=C1CCc2cc(-c3csc(NC(=O)c4ccccc4)n3)ccc2N1 | > 25 µM

Turning now to a further compound:
Query block: So what's the measured IC50 for this one? CC(=O)N1CCCc2cc(-c3csc(NC(=O)c4sc(C)nc4C)n3)ccc21
Result block: 11 µM
